The measured values listed here are drawn from patent US20250289789A1.

IC50 values, listed per item
molecular target: CDK4-NanoLuc fusion with CCND1 in 293T or 293 cells (Homo sapiens, UniProt P11802); construct: host or cells: 293T (ATCC CRL-3216) or 293 (ATCC CRL-1573); assay: NanoBRET Target Engagement (TE) Intracellular Kinase Assay, CDK4/CCND1; type: cell-based; details: NanoBRET TE intracellular kinase assay, 2-hour incubation, read-out: NanoBRET-CDK4/D1 IC50
Sequence (P11802 whole entry, the tested form may be a part): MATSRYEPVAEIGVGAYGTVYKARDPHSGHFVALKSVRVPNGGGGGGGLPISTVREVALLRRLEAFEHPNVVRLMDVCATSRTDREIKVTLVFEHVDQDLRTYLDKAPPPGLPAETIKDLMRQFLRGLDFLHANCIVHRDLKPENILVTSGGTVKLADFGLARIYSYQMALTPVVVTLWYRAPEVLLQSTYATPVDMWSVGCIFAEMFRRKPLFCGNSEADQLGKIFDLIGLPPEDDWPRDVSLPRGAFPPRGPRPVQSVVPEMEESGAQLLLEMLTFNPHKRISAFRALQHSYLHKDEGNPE
Sequence (P24385 whole entry partner, the tested form may be a part): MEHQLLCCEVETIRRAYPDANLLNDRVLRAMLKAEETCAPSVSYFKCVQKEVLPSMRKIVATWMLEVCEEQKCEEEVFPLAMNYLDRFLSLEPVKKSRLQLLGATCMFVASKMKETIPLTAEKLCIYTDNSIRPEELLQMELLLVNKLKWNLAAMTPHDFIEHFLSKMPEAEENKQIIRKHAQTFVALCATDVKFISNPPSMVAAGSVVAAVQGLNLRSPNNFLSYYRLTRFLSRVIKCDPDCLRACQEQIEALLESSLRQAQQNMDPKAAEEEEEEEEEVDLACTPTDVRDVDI
Write the answer as a number in µM, unit excluded.

Solved cases (2 shown):
* CC(C)NC(=O)O[C@@H]1CC[C@H](c2cc(NC(=O)c3cc(-c4cccc(O)c4C=O)nn3C3CC3)n[nH]2)C1 | 2.89
* CC(C)NC(=O)O[C@@H]1CC[C@H](c2cc(NC(=O)c3cc(-c4cnccc4C=O)nn3C)n[nH]2)C1 | 1.55

Challenge: So what's the measured IC50 for this one? "COc1cc(O)c(C=O)c(OCC(=O)Nc2cc([C@H]3CC[C@@H](OC(=O)N4[C@H](C)C[C@@H]4C)C3)[nH]n2)c1"
Response given: 2.57

---

pIC50 values, listed per item
target: CDK1-NanoLuc fusion with CCNB1 in 293T or 293 cells (Homo sapiens, UniProt P06493); construct: host or cells: 293T (ATCC CRL-3216) or 293 (ATCC CRL-1573); assay: NanoBRET Target Engagement (TE) Intracellular Kinase Assay, CDK1/CCNB1; assay type: cell-based; details: NanoBRET TE intracellular kinase assay, 2-hour incubation, read-out: NanoBRET-CDK1/B1 IC50
Sequence (P06493 whole entry, the tested form may be a part): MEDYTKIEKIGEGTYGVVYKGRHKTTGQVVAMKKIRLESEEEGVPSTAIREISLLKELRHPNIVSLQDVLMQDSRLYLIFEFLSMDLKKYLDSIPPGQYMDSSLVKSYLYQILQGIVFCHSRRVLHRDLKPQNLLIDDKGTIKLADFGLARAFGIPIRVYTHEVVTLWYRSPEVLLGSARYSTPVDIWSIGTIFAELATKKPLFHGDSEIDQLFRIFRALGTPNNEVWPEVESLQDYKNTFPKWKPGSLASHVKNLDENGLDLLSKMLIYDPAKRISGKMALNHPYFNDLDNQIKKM
Sequence (P14635 whole entry partner, the tested form may be a part): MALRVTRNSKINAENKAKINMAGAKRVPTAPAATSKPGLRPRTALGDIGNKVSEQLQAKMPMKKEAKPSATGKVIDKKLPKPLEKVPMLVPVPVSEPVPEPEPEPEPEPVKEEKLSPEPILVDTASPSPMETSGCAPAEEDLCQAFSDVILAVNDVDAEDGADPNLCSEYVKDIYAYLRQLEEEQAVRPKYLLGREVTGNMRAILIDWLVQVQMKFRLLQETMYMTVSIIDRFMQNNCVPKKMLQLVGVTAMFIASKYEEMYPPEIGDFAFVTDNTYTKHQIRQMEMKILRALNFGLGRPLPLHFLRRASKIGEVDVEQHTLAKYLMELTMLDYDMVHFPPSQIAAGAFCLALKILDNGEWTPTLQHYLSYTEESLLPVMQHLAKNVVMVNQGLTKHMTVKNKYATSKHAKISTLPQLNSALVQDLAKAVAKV
Conceptually, pIC50 converts a concentration in mol/L into minus its log10.

Solved cases (8 shown):
- CC(C)NC(=O)O[C@@H]1CC[C@H](c2cc(Nc3cc(OCc4cccc(O)c4C=O)ccn3)n[nH]2)C1: 6.52
- C[C@H]1CCCN1C(=O)O[C@@H]1CC[C@H](c2cc(NC(=O)COc3cccc(O)c3C=O)n[nH]2)C1: 8.08
- CC(C)NC(=O)O[C@@H]1CC[C@H](c2cc(NC(=O)COc3cc(F)cc(O)c3C=O)n[nH]2)C1: 6.97
- CC(C)NC(=O)O[C@@H]1CC[C@H](c2cc(NC(=O)c3cc(-c4cccc(O)c4C=O)n(C)n3)n[nH]2)C1: 6.44
- CC(C)NC(=O)O[C@@H]1CC[C@H](c2cc(NC(=O)c3cc(C#Cc4cccc(O)c4C=O)nn3C)n[nH]2)C1: 6.31
- COc1cc(O)c(C=O)c(OCC(=O)Nc2cc([C@H]3CC[C@@H](OC(=O)N4CC5CC(C5)C4)C3)[nH]n2)c1: 8.04
- COc1cc(O)c(C=O)c(OCC(=O)Nc2cc([C@H]3CC[C@@H](OC(=O)N4CCCC4(C)C)C3)[nH]n2)c1: 8.62
- COc1cc(O)c(C=O)c(OCC(=O)Nc2cc([C@H]3CC[C@@H](OC(=O)N4CC[C@@H]5C[C@@H]54)C3)[nH]n2)c1: 7.89

Challenge: So what's the measured pIC50 for this one? "CCCNC(=O)O[C@@H]1CC[C@H](c2cc(NC(=O)COc3cc(OC)cc(O)c3C=O)n[nH]2)C1"
Response given: 8.07

Challenge: So what's the measured pIC50 for this one? "COc1cc(OC)c(C=O)c(OCC(=O)Nc2cc([C@H]3CC[C@@H](OC(=O)NC(C)C)C3)[nH]n2)c1"
Response given: 8.25

Challenge: So what's the measured pIC50 for this one? "CC(C)NC(=O)O[C@@H]1CC[C@H](c2cc(NC(=O)CSc3cccc(O)c3C=O)n[nH]2)C1"
Response given: 6.89

Challenge: So what's the measured pIC50 for this one? "CC1(NC(=O)O[C@@H]2CC[C@H](c3cc(NC(=O)COc4cccc(O)c4C=O)n[nH]3)C2)CC1"
Response given: 7.95

Challenge: So what's the measured pIC50 for this one? "CC(C)NC(=O)O[C@@H]1CC[C@H](c2cc(NC(=O)COCc3cccc(O)c3C=O)n[nH]2)C1"
Response given: 7.09

Challenge: So what's the measured pIC50 for this one? "CCCNC(=O)O[C@@H]1CC[C@H](c2cc(NC(=O)COc3cccc(O)c3C=O)n[nH]2)C1"
Response given: 7.73
